Values compiled from patent US20220257704A1.

System: HT-29 cell line
Experiment: MTT cytotoxicity assay, 48 h, alone and in combination (IC50 and Combination Index)
Type: cell-based
Conditions: Homo sapiens, HT-29, SEQ ID NO: 1 at 80 μg/mL; read-out: IC50 of Irinotecan
measuredAttribute: IC50 (nM)
Supply the numeric figure in nM, leaving out any unit text.

Determine reported IC50 for CCc1c2c(nc3ccc(OC(=O)N4CCC(N5CCCCC5)CC4)cc13)-c1cc3c(c(=O)n1C2)COC(=O)[C@]3(O)CC [Irinotecan, reference compound] ; test system: HT-29 cell line.
167

---

Test system: PANC-1 cell line
Assay: MTT cytotoxicity assay, 48 h, alone and in combination (IC50 and Combination Index)
Assay type: cell-based
Details: Homo sapiens, PANC-1, SEQ ID NO: 1 at 40 μg/mL; read-out: IC50 of Gemcitabine
measuredAttribute: pIC50
// pIC50: -log10(molar conc.)

For the compound Nc1ccn([C@@H]2O[C@H](CO)[C@@H](O)C2(F)F)c(=O)n1 [Gemcitabine, reference compound] , give its measured pIC50 value.
7.42
